For each of the molecules below, state its IC50.
Target: MCH receptor (Homo sapiens, UniProt Q99705)
Test: High throughput functional screening FLIPR/FDSS6000 (intracellular Ca2+ evoked by MCH)
Type: cell-based
Conditions: FLIPR/FDSS, antagonist activity vs 50 nM MCH; class by percent of control at 10^−7 M or IC50; table after the classification; read-out: class
Structures can show the parent of a compound that is named as a salt.

Name the recorded IC50 for CN(C)c1nc(N[C@H]2CC[C@@H](CNC(=O)Nc3cccc(Cl)c3Cl)CC2)nc2c1CCCC2 [Example 3196, hydrochloride] .
50 to 200 nM

Name the recorded IC50 for O=C(N[C@H]1CC[C@@H](Nc2nccc(C(F)(F)F)n2)CC1)c1cccnc1Oc1ccccc1 [Example 3133, hydrochloride] .
> 200 nM

Name the recorded IC50 for Cc1cc(N[C@H]2CC[C@@H](NC(=O)c3c(F)cccc3F)CC2)nc2ccccc12 [Example 3165, hydrochloride] .
50 to 200 nM

Name the recorded IC50 for Cc1cc(N(C)C)nc(N[C@H]2CC[C@@H](NC(=O)c3ccc(F)c(F)c3)CC2)n1 [Example 3127, hydrochloride] .
< 50 nM

Name the recorded IC50 for Cc1cc(N[C@H]2CC[C@@H](CNC(=O)c3cccnc3Oc3ccccc3)CC2)nc2ccccc12 [Example 3105, hydrochloride] .
50 to 200 nM

Name the recorded IC50 for CN(C)c1nc(N[C@H]2CC[C@@H](NCCc3ccc(Br)cc3OC(F)(F)F)CC2)nc2c1CCCC2 [Example 14, dihydrochloride] .
< 50 nM

Name the recorded IC50 for Nc1cc(N[C@H]2CC[C@@H](NC(=O)c3ccc(F)c(F)c3)CC2)nc2ccccc12 [Example 3235, hydrochloride] .
< 50 nM
